test: Pharmacokinetic study in rats; format: in vivo, male Sprague-Dawley rats; conditions: male, Sprague-Dawley, plasma; rat, IV 0.2 to 0.5 mg/kg; read-out: Vd,ss (L/kg) Rat
property_label: Vd (L/kg)
Answers are plain numbers, in L/kg.

sample_smiles=Cc1ncnc(C)c1-c1ccc(C(=O)N2CC[C@H](C(=O)Nc3ccc(F)c(Cl)c3)C2)[nH]1 property_label=Vd reported_value=2.34
sample_smiles=Cc1cc(NC(=O)[C@H]2CCN(C(=O)c3ccc(-c4c(C)ncnc4C)[nH]3)[C@H]2C)ccc1F property_label=Vd reported_value=2.92
sample_smiles=Cc1ncnc(C)c1-c1ccc(C(=O)N2CC[C@H](C(=O)Nc3cc(F)c(F)c(F)c3)C2)[nH]1 property_label=Vd reported_value=2.88
sample_smiles=C[C@H]1[C@@H](C(=O)Nc2ccc(F)c(C#N)c2)CCN1C(=O)c1ccc(C2CC2)[nH]1 property_label=Vd reported_value=0.72
sample_smiles=Cc1ncnc(C)c1-c1ccc(C(=O)N2CC[C@H](C(=O)Nc3ccc(F)c(Cl)c3)[C@@H]2C)[nH]1 property_label=Vd reported_value=1.93

Now consider a different compound.
Input line: Input `C[C@H]1[C@@H](C(=O)Nc2cc(F)c(F)c(F)c2)CCN1C(=O)c1ccc(-c2ccnnc2)[nH]1` , output reported Vd.
Output line: 0.13

* * *

assay: Cytotoxicity (MTT) in HepG2.2.15 cells; format: cell-based; conditions: human, 6 days treatment, read-out: HepG2.1.15 cytotoxicity (CC50)
I'd appreciate it if you could supply CC50 at 6 days values for the items below.

compound="Cc1cc(NC(=O)[C@H]2CCN(C(=O)c3ccc(-c4ccnnc4)[nH]3)[C@H]2C)ccc1F [Example 102]" property_label="CC50 at 6 days" reported_value="> 25 µM"
compound="C[C@H]1[C@@H](C(=O)Nc2cc(F)c(F)c(F)c2)CCN1C(=O)c1ccc(-c2ccnnc2)[nH]1 [Example 83]" property_label="CC50 at 6 days" reported_value="> 25 µM"
compound="C[C@H]1[C@@H](C(=O)Nc2ccc(F)c(F)c2)CCN1C(=O)c1ccc(-c2ccnnc2)[nH]1 [Example 110]" property_label="CC50 at 6 days" reported_value="> 25 µM"
compound="Cc1ccc(C(=O)N2CC[C@H](C(=O)Nc3cc(F)c(F)c(Cl)c3)[C@@H]2C)[nH]1 [Example 20]" property_label="CC50 at 6 days" reported_value="10 to 25 µM"
compound="C[C@H]1[C@@H](C(=O)Nc2ccc(F)c(C#N)c2)CCN1C(=O)c1ccc(C2CC2)[nH]1 [Example 74]" property_label="CC50 at 6 days" reported_value="10 to 25 µM"

# per-item lookup of CC50 at 6 days; items listed below
1. Cc1n[nH]c(C)c1-c1ccc(C(=O)N2CC[C@H](C(=O)Nc3ccc(F)c(Cl)c3)[C@@H]2C)[nH]1 [Example 105]
2. Cc1cc[nH]c(=O)c1-c1ccc(C(=O)N2CC[C@H](C(=O)Nc3ccc(F)c(Cl)c3)[C@@H]2C)[nH]1 [Example 119]
3. Cc1ncnc(C)c1-c1ccc(C(=O)N2CC[C@H](C(=O)Nc3ccc(F)c(Cl)c3)C2)[nH]1 [Example 99]
4. Cc1ncnc(C)c1-c1ccc(C(=O)N2CC[C@H](C(=O)Nc3cc(F)c(F)c(F)c3)[C@@H]2C)[nH]1 [Example 111]
5. Cc1c(-c2ccc(C(=O)N3CC[C@H](C(=O)Nc4cc(F)c(F)c(F)c4)C3)[nH]2)ccc2[nH]ncc12 [Example 128]
6. Cc1cnnc(C)c1-c1ccc(C(=O)N2CC[C@H](C(=O)Nc3ccc(F)c(C#N)c3)[C@@H]2C)[nH]1 [Example 116]
7. Cc1cc(NC(=O)[C@H]2CCN(C(=O)c3ccc(-c4c(C)cnnc4C)[nH]3)C2)ccc1F [Example 117]
8. Cc1cc(NC(=O)[C@H]2CCN(C(=O)c3ccc(-c4c(C(F)(F)F)n[nH]c4C)[nH]3)C2)ccc1F [Example 114]

Output line:
["< 10 µM", "> 25 µM", "10 to 25 µM", "< 10 µM", "10 to 25 µM", "> 25 µM", "> 25 µM", "10 to 25 µM"]

Fill in CC50 at 6 days for each of the 2 compounds listed.
1. Cc1cc(NC(=O)[C@H]2CCN(C(=O)c3ccc(-c4c(C)n[nH]c4C)[nH]3)[C@H]2C)ccc1F [Example 103]
2. C[C@H]1[C@@H](C(=O)Nc2cc(F)c(F)c(F)c2)CCN1C(=O)c1nc2cccnc2[nH]1 [Example 70]

Output line:
10 to 25 µM
> 25 µM

* * *

system: HBV; assay: In vitro anti-HBV activity in HepG2.2.15 cell line (intracellular HBV DNA by qPCR at 1 μM); format: cell-based; conditions: Hepatitis B virus, 144 h; HepG2.2.15 cells, 1 μM compound, 6 days, intracellular HBV DNA as percentage compared to vehicle control (0.5% DMSO)
property_label: activity at 1 µM

I need activity at 1 µM for every entry listed below, if you could help.
1. Cc1cc2[nH]ncc2cc1-c1ccc(C(=O)N2CC[C@H](C(=O)Nc3cc(F)c(F)c(F)c3)C2)[nH]1
2. Cc1cnnc(C)c1-c1ccc(C(=O)N2CC[C@H](C(=O)Nc3ccc(F)c(C#N)c3)[C@@H]2C)[nH]1
3. C[C@H]1[C@@H](C(=O)Nc2ccc(F)c(C#N)c2)CCN1C(=O)c1cc2cccnc2[nH]1
4. Cc1cc(NC(=O)[C@H]2CCN(C(=O)c3ccc(-c4c(C)cn[nH]c4=O)[nH]3)[C@H]2C)ccc1F
5. C[C@H]1[C@@H](C(=O)Nc2ccc(F)c(C#N)c2)CCN1C(=O)c1ccc(Cl)[nH]1
6. O=C(Nc1cc(F)c(F)c(F)c1)[C@H]1CCN(C(=O)c2cc3cc(F)ccc3[nH]2)C1

Output line:
["< 45%", "45 to 60%", "> 90%", "< 45%", "< 45%", "> 90%"]

* * *

test system: HBV; experiment: In vitro anti-HBV activity in HepG2.2.15 cell line (intracellular HBV DNA by qPCR at 1 μM); assay type: cell-based; conditions: Hepatitis B virus, 144 h; HepG2.2.15 cells, 1 μM compound, 6 days, intracellular HBV DNA as percentage compared to vehicle control (0.5% DMSO)
property_label: activity at 1 µM

// solved cases for activity at 1 µM follow
sample_smiles=Cc1[nH]nc(C(F)(F)F)c1-c1ccc(C(=O)N2CC[C@H](C(=O)Nc3ccc(F)c(C#N)c3)[C@@H]2C)[nH]1 property_label="activity at 1 µM" reported_value="< 45%"
sample_smiles=C[C@H]1[C@@H](C(=O)Nc2ccc(F)c(C#N)c2)CCN1C(=O)c1[nH]c2cc(-c3cn[nH]c3)ccc2c1Cl property_label="activity at 1 µM" reported_value="< 45%"
sample_smiles=Cc1cc(NC(=O)[C@H]2CCN(C(=O)c3nc4ccccc4[nH]3)C2)ccc1F property_label="activity at 1 µM" reported_value="< 45%"
sample_smiles=Cc1ncnc(C)c1-c1ccc2c(Cl)c(C(=O)N3CC[C@H](C(=O)NCc4cnc(Cl)s4)C3)[nH]c2c1 property_label="activity at 1 µM" reported_value="> 90%"

Please turn your attention to the following entry.
Input line: With HBV as the test system, provide measured activity at 1 µM for this compound: `Cc1cc(NC(=O)[C@H]2CCN(C(=O)c3ccc(-c4cccnc4C#N)[nH]3)C2)ccc1F`
Output line: < 45%

* * *

experiment: Pharmacokinetic study in rats; assay type: in vivo, male Sprague-Dawley rats; conditions: male, Sprague-Dawley, rat, plasma; read-out: t1/2 (h) Rat (converted)
Parameter threshold = 6 h. Response is satisfied when half-life meets or exceeds it, else not satisfied.

The examples below pair each entry with its known result.
molecule="Cc1ncnc(C)c1-c1ccc(C(=O)N2CC[C@H](C(=O)Nc3ccc(F)c(Cl)c3)[C@@H]2C)[nH]1 [Example 104]" assigned_label="not satisfied"
molecule="C[C@H]1[C@@H](C(=O)Nc2ccc(F)c(C#N)c2)CCN1C(=O)c1ccc(C2CC2)[nH]1 [Example 74]" assigned_label="not satisfied"
molecule="Cc1cc(NC(=O)[C@H]2CCN(C(=O)c3ccc(-c4c(C)ncnc4C)[nH]3)[C@H]2C)ccc1F [Example 149]" assigned_label=satisfied
molecule="Cc1ncnc(C)c1-c1ccc(C(=O)N2CC[C@H](C(=O)Nc3ccc(F)c(Cl)c3)C2)[nH]1 [Example 99]" assigned_label="not satisfied"
molecule="Cc1ncnc(C)c1-c1ccc(C(=O)N2CC[C@H](C(=O)Nc3cc(F)c(F)c(F)c3)C2)[nH]1 [Example 85]" assigned_label="not satisfied"

Now examine the next entry.
Input line: Hello, I need to know if C[C@H]1[C@@H](C(=O)Nc2cc(F)c(F)c(F)c2)CCN1C(=O)c1ccc(-c2ccnnc2)[nH]1 [Example 83] has measured half-life not below 6 h. Thanks!
Output line: not satisfied
